System: periodontopathic bacteria specific aminopeptidase activity
assay.details: Hydrolytic activity of gingival crevicular fluid specimens, OD525 (Experiment 6)
Assay type: biochemical
setup.conditions: Periodontitis subject 6 (spirochete 35.1 %)
Where a SMILES comes first, the peptide text is derived from it. The star is where a group is joined. βNA = c1ccc2cc(N*)ccc2c1; Cbz = O=C(OCc1ccccc1)*; Bz = O=C(c1ccccc1)*
observable: hydrolytic activity, absorption at 525 nm (OD525)

{"compound": "NCC(=O)N1CCC[C@H]1C(=O)Nc1ccc2ccccc2c1 [GP, glycyl-proline-β-naphthylamide] (H-Gly-Pro-βNA)", "value.reported": "+++ (0.4≤OD525 <0.8)"}
{"compound": "CC(C)[C@H](NC(=O)OCc1ccccc1)C(=O)NCC(=O)N[C@@H](CCCNC(=N)N)C(=O)Nc1ccc2ccccc2c1 [CxVGR] (Cbz-Val-Gly-Arg-βNA)", "value.reported": "+++ (0.4≤OD525 <0.8)"}
{"compound": "N=C(N)NCCC[C@H](NC(=O)c1ccccc1)C(=O)NCC(=O)N[C@@H](Cc1ccccc1)C(=O)N1CCC[C@H]1C(=O)Nc1ccc2ccccc2c1 [BzRGFP] (Bz-RGFP-βNA)", "value.reported": "+++ (0.4≤OD525 <0.8)"}

###

System: periodontopathic bacteria specific aminopeptidase activity
assay.details: Hydrolytic activity of gingival crevicular fluid specimens, OD525 (Experiment 6)
Format: biochemical
setup.conditions: Periodontitis subject 2 (spirochete 30.3 %)
Where a SMILES comes first, the peptide text is derived from it. The star is where a group is joined. βNA = c1ccc2cc(N*)ccc2c1; Cbz = O=C(OCc1ccccc1)*; Bz = O=C(c1ccccc1)*
observable: hydrolytic activity, absorption at 525 nm (OD525)

{"compound": "N=C(N)NCCC[C@H](NC(=O)c1ccccc1)C(=O)NCC(=O)N[C@@H](Cc1ccccc1)C(=O)N1CCC[C@H]1C(=O)Nc1ccc2ccccc2c1 [BzRGFP] (Bz-RGFP-βNA)", "value.reported": "+++ (0.4≤OD525 <0.8)"}
{"compound": "CC(C)[C@H](NC(=O)OCc1ccccc1)C(=O)NCC(=O)N[C@@H](CCCNC(=N)N)C(=O)Nc1ccc2ccccc2c1 [CxVGR] (Cbz-Val-Gly-Arg-βNA)", "value.reported": "+++ (0.4≤OD525 <0.8)"}
{"compound": "NCC(=O)N1CCC[C@H]1C(=O)Nc1ccc2ccccc2c1 [GP, glycyl-proline-β-naphthylamide] (H-Gly-Pro-βNA)", "value.reported": "+++ (0.4≤OD525 <0.8)"}

###

Test system: periodontopathic bacteria specific aminopeptidase activity
assay.details: Hydrolytic activity of gingival crevicular fluid specimens, OD525 (Experiment 6)
Format: biochemical
setup.conditions: Periodontitis subject 4 (spirochete 21.2 %)
Where a SMILES comes first, the peptide text is derived from it. The star is where a group is joined. βNA = c1ccc2cc(N*)ccc2c1; Cbz = O=C(OCc1ccccc1)*; Bz = O=C(c1ccccc1)*
observable: hydrolytic activity, absorption at 525 nm (OD525)

{"molecule": "N=C(N)NCCC[C@H](NC(=O)CNC(=O)c1ccccc1)C(=O)Nc1ccc2ccccc2c1 [BzGR] (Bz-Gly-Arg-βNA)", "value.reported": "++ (0.2≤OD525 <0.4)"}
{"molecule": "NCC(=O)N1CCC[C@H]1C(=O)Nc1ccc2ccccc2c1 [GP, glycyl-proline-β-naphthylamide] (H-Gly-Pro-βNA)", "value.reported": "++ (0.2≤OD525 <0.4)"}
{"molecule": "CC(C)[C@H](NC(=O)OCc1ccccc1)C(=O)NCC(=O)N[C@@H](CCCNC(=N)N)C(=O)Nc1ccc2ccccc2c1 [CxVGR] (Cbz-Val-Gly-Arg-βNA)", "value.reported": "+++ (0.4≤OD525 <0.8)"}
{"molecule": "N=C(N)NCCC[C@H](NC(=O)c1ccccc1)C(=O)NCC(=O)N[C@@H](Cc1ccccc1)C(=O)N1CCC[C@H]1C(=O)Nc1ccc2ccccc2c1 [BzRGFP] (Bz-RGFP-βNA)", "value.reported": "+++ (0.4≤OD525 <0.8)"}

###

System: periodontopathic bacteria specific aminopeptidase activity
assay.details: Hydrolytic activity of gingival crevicular fluid specimens, OD525 (Experiment 6)
Assay type: biochemical
setup.conditions: Periodontitis subject 3 (spirochete 34.6 %)
Where a SMILES comes first, the peptide text is derived from it. The star is where a group is joined. βNA = c1ccc2cc(N*)ccc2c1; Cbz = O=C(OCc1ccccc1)*; Bz = O=C(c1ccccc1)*
observable: hydrolytic activity, absorption at 525 nm (OD525)

{"molecule": "NCC(=O)N1CCC[C@H]1C(=O)Nc1ccc2ccccc2c1 [GP, glycyl-proline-β-naphthylamide] (H-Gly-Pro-βNA)", "value.reported": "+++ (0.4≤OD525 <0.8)"}
{"molecule": "N=C(N)NCCC[C@H](NC(=O)c1ccccc1)C(=O)NCC(=O)N[C@@H](Cc1ccccc1)C(=O)N1CCC[C@H]1C(=O)Nc1ccc2ccccc2c1 [BzRGFP] (Bz-RGFP-βNA)", "value.reported": "+++ (0.4≤OD525 <0.8)"}
{"molecule": "CC(C)[C@H](NC(=O)OCc1ccccc1)C(=O)NCC(=O)N[C@@H](CCCNC(=N)N)C(=O)Nc1ccc2ccccc2c1 [CxVGR] (Cbz-Val-Gly-Arg-βNA)", "value.reported": "+++ (0.4≤OD525 <0.8)"}

###

Tested on: periodontopathic bacteria specific aminopeptidase activity
assay.details: Hydrolytic activity of gingival crevicular fluid specimens, OD525 (Experiment 6)
Type: biochemical
setup.conditions: Periodontitis subject 5 (spirochete 40.3 %)
Where a SMILES comes first, the peptide text is derived from it. The star is where a group is joined. βNA = c1ccc2cc(N*)ccc2c1; Cbz = O=C(OCc1ccccc1)*; Bz = O=C(c1ccccc1)*
observable: hydrolytic activity, absorption at 525 nm (OD525)

{"compound": "CC(C)[C@H](NC(=O)OCc1ccccc1)C(=O)NCC(=O)N[C@@H](CCCNC(=N)N)C(=O)Nc1ccc2ccccc2c1 [CxVGR] (Cbz-Val-Gly-Arg-βNA)", "value.reported": "+++ (0.4≤OD525 <0.8)"}
{"compound": "N=C(N)NCCC[C@H](NC(=O)c1ccccc1)C(=O)NCC(=O)N[C@@H](Cc1ccccc1)C(=O)N1CCC[C@H]1C(=O)Nc1ccc2ccccc2c1 [BzRGFP] (Bz-RGFP-βNA)", "value.reported": "+++ (0.4≤OD525 <0.8)"}
{"compound": "NCC(=O)N1CCC[C@H]1C(=O)Nc1ccc2ccccc2c1 [GP, glycyl-proline-β-naphthylamide] (H-Gly-Pro-βNA)", "value.reported": "+++ (0.4≤OD525 <0.8)"}

###

System: periodontopathic bacteria specific aminopeptidase activity
assay.details: Hydrolytic activity of gingival crevicular fluid specimens, OD525 (Experiment 6)
Type: biochemical
setup.conditions: Periodontitis subject 1 (spirochete 45.2 %)
Where a SMILES comes first, the peptide text is derived from it. The star is where a group is joined. βNA = c1ccc2cc(N*)ccc2c1; Cbz = O=C(OCc1ccccc1)*; Bz = O=C(c1ccccc1)*
observable: hydrolytic activity, absorption at 525 nm (OD525)

{"compound": "NCC(=O)N1CCC[C@H]1C(=O)Nc1ccc2ccccc2c1 [GP, glycyl-proline-β-naphthylamide] (H-Gly-Pro-βNA)", "target.of.assay": "periodontopathic bacteria specific aminopeptidase activity", "value.reported": "+++ (0.4≤OD525 <0.8)"}
{"compound": "CC(C)[C@H](NC(=O)OCc1ccccc1)C(=O)NCC(=O)N[C@@H](CCCNC(=N)N)C(=O)Nc1ccc2ccccc2c1 [CxVGR] (Cbz-Val-Gly-Arg-βNA)", "target.of.assay": "periodontopathic bacteria specific aminopeptidase activity", "value.reported": "+++ (0.4≤OD525 <0.8)"}
{"compound": "N=C(N)NCCC[C@H](NC(=O)c1ccccc1)C(=O)NCC(=O)N[C@@H](Cc1ccccc1)C(=O)N1CCC[C@H]1C(=O)Nc1ccc2ccccc2c1 [BzRGFP] (Bz-RGFP-βNA)", "target.of.assay": "periodontopathic bacteria specific aminopeptidase activity", "value.reported": "+++ (0.4≤OD525 <0.8)"}

###

System: periodontopathic bacteria specific aminopeptidase activity
assay.details: Hydrolytic activity of gingival crevicular fluid specimens, OD525 (Experiment 6)
Assay type: biochemical
setup.conditions: Gingivitis subject 2 (spirochete 16.7 %)
Where a SMILES comes first, the peptide text is derived from it. The star is where a group is joined. βNA = c1ccc2cc(N*)ccc2c1; Cbz = O=C(OCc1ccccc1)*; Bz = O=C(c1ccccc1)*
observable: hydrolytic activity, absorption at 525 nm (OD525)

{"compound": "NCC(=O)N1CCC[C@H]1C(=O)Nc1ccc2ccccc2c1 [GP, glycyl-proline-β-naphthylamide] (H-Gly-Pro-βNA)", "value.reported": "+ (0.1≤OD525 <0.2)"}
{"compound": "CC(C)[C@H](NC(=O)OCc1ccccc1)C(=O)NCC(=O)N[C@@H](CCCNC(=N)N)C(=O)Nc1ccc2ccccc2c1 [CxVGR] (Cbz-Val-Gly-Arg-βNA)", "value.reported": "+ (0.1≤OD525 <0.2)"}
{"compound": "N=C(N)NCCC[C@H](NC(=O)c1ccccc1)C(=O)NCC(=O)N[C@@H](Cc1ccccc1)C(=O)N1CCC[C@H]1C(=O)Nc1ccc2ccccc2c1 [BzRGFP] (Bz-RGFP-βNA)", "value.reported": "+ (0.1≤OD525 <0.2)"}
{"compound": "N=C(N)NCCC[C@H](NC(=O)CNC(=O)c1ccccc1)C(=O)Nc1ccc2ccccc2c1 [BzGR] (Bz-Gly-Arg-βNA)", "value.reported": "+ (0.1≤OD525 <0.2)"}
